tested on: 377384-186-R-J1-PDC complex spheroid viability; assay: Anticancer human tumor 377384-186-R-J1-PDC patient-derived pancreatic carcinoma cell line growth inhibition [RAS]; conditions: second compound 1 µM; first compound 0.316 µM; active = viability on the fitted dose curve at most 10% of control; inactive = the rest;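 note: spheroids exposed to compounds for seven days before readout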
Outcome codes: True (active), False (inactive)

# compound, label class
data = [
    ("Cc1nc(N2CCC3(CC2)COC(C)C3N)c(CO)nc1Sc1ccnc(N)c1Cl (centres undefined) + C=CC(=O)N1CCN(c2nc(OCC3CCCN3C)nc3c(F)c(-c4nc(N)cc(C)c4C(F)(F)F)c(Cl)cc23)C(C)C1", "False"),
    ("C=CC(=O)Nc1cc(Nc2nccc(-c3cn(C)c4ccccc34)n2)c(OC)cc1N(C)CCN(C)C + C=CC(=O)N1CCN(c2nc(OCC3CCCN3C)nc3c(F)c(-c4nc(N)cc(C)c4C(F)(F)F)c(Cl)cc23)C(C)C1", "False"),
    ("Nc1ccn(C2OC(CO)C(O)C2(F)F)c(=O)n1 (centres undefined) + C#Cc1c(F)ccc2cc(O)cc(-c3ncc4c(N5CC6CCC(C5)N6)nc(OCC56CCCN5CC(F)C6)nc4c3F)c12", "True"),
    ("NC1c2ccccc2OC12CCN(c1cnc3c(N4CCCc5ncccc54)n[nH]c3n1)CC2 (centres undefined) + C#Cc1c(F)ccc2cc(O)cc(-c3ncc4c(N5CC6CCC(C5)N6)nc(OCC56CCCN5CC(F)C6)nc4c3F)c12", "True"),
]
